The values you see were collected from PubChem BioAssay (NCATS).

- assay-info: Quantitative High-Throughput drug screen in 47 multiple myeloma cell lines against the NCATS MIPE library collection: OCIMY1_PLB cell viability assay (AID 1918979); note: nearly all actives have a fitted effect of over 35% in size
- test-parameters: OCI-MY1 myeloma viability, CellTiter-Glo ATP, 48 h; series mostly up to 45.8 µM
- Description: PI: Beverly A. Mock Ph.D. Laboratory of Cancer Biology and Genetics, Center for Cancer Research, National Cancer Institute, National Institute of Health, Bethesda, Maryland […] 5; Detector; 425V; Luminescence; Viewlux PerkinElmer. […] 1. […] Briefly, the corresponding myeloma cell lines were screened in 1,536-well plates with 500 cells, 5-uL per well for inhibition of cell viability (assessed by measuring ATP levels with CellTiterGlo). […]
Results filed as inconclusive are left out. Active and inactive are the calls of the source. Calls come from the whole dose curve; as a rule, active = well fitted cell-killing curve with a large enough effect; inconclusive = small, poorly fitted or top-dose-only effect, or effect the other way; inactive = no such curve, though single readings can be large or run the other way.
Labels: yes = active, no = inactive

compound	group-label
COc1cc(F)c(C(C)C)cc1-c1ccc(C(F)(F)F)cc1CN1C(=O)O[C@H](c2cc(C(F)(F)F)cc(C(F)(F)F)c2)[C@@H]1C	no
CC(C)CN(C[C@@H](O)[C@H](Cc1ccccc1)NC(=O)O[C@H]1CO[C@H]2OCC[C@H]21)S(=O)(=O)c1ccc(N)cc1	no
C[C@@H]1CCO[C@H]2Cn3cc(C(=O)NCc4ccc(F)cc4F)c(=O)c(O)c3C(=O)N12	no
CO[C@H]1C=CO[C@@]2(C)Oc3c(C)c(O)c4c(O)c(c(C=NN5CCN(C)CC5)c(O)c4c3C2=O)NC(=O)C(C)=CC=C[C@H](C)[C@H](O)[C@@H](C)[C@@H](O)[C@@H](C)[C@H](OC(C)=O)[C@H]1C	no
O=C1CN2Cc3c(ccc(Cl)c3Cl)N=C2N1	no
CN(C(Cc1ccc(OS(=O)(=O)c2cccc3cnccc23)cc1)C(=O)N1CCN(c2ccccc2)CC1)S(=O)(=O)c1cccc2cnccc12 (stereo not given)	yes
CON(C)C(=O)N1N=C(c2cc(F)ccc2F)S[C@]1(CCCN)c1ccccc1	no
COc1cc2c(cc1OC)[C@@H]1Cc3ccc(OC)c(OC)c3CN1CC2	no
Cc1ccc(NC(=O)Nc2cc(C(F)(F)F)ccc2F)cc1Nc1ccc2c(c1)NC(=O)C2=Cc1ccc[nH]1	yes
Cc1cc(CS(=O)(=O)c2ccccc2)cc(OCc2ccc(CN3CCC[C@H]3CO)cc2)c1	no
CNc1nc(Nc2ccc(C(=O)N3CCOCC3)cc2OC)ncc1Cl	no
OCCn1cc(-c2ccc3c(c2)CCC3=NO)c(-c2ccncc2)n1	no
C[C@H]1COC2=C1C(=O)C(=O)c1c2ccc2c1CCCC2(C)C	no
O=S(=O)(O)c1ccc2cc(N=Nc3cc(S(=O)(=O)O)c4cccnc4c3O)ccc2c1	no
Fc1ccc(CNc2ncnc3ccc(F)cc23)cc1	yes
CC(C)CN(C[C@H](O)[C@H](Cc1ccccc1)NC(=O)O[C@H]1CCOC1)S(=O)(=O)c1ccc(N)cc1	no
CC1=C(CC(=O)O)c2cc(F)ccc2C1=Cc1ccc(S(C)=O)cc1 (stereo not given)	no
COc1cc2ncn(-c3cc(OCc4ccccc4S(C)(=O)=O)c(C#N)s3)c2cc1OC	no
CCC(=O)OCC(=O)[C@@]1(OC(=O)CC)[C@@H](C)C[C@@H]2[C@H]3CCC4=CC(=O)C=C[C@]4(C)[C@@]3(F)[C@@H](O)C[C@@]21C	no
CCC(=C(c1ccc(O)cc1)c1ccc(OCCNC)cc1)c1ccccc1	yes
CC1C(=O)OC2C(O)C34C5CC(C(C)(C)C)C36C(OC(=O)C6O)OC4(C(=O)O5)C12O (stereo not given)	no
CC(C)c1c(C(=O)Nc2ccccc2)c(-c2ccccc2)c(-c2ccc(F)cc2)n1CC[C@H](O)C[C@@H](O)CC(=O)O	no
Clc1ccc(C2(c3ccc(-c4cn[nH]c4)cc3)CCNCC2)cc1	yes
Cc1cc2c(cc1C1(c3ccc(C(=O)O)cn3)CC1)C(C)(C)CCC2(C)C	yes
O=[N+]([O-])c1ccc(Nc2ccccc2-c2ccccc2)c2nonc12	no
CCN(CC)CCCCNc1nc2cc(Cl)c(Cl)cc2nc1-c1ccc(-c2cccs2)s1	yes
O=C(O)C1=CO[C@@H](O[C@@H]2O[C@H](CO)[C@H](O)[C@H](O)[C@H]2O)[C@@H]2C(CO)=CC[C@H]12	no
C[C@@H]1CC=CC=CC=CC=C[C@@H](O[C@@H]2O[C@H](C)[C@@H](O)[C@H](N)[C@H]2O)C[C@@H]2O[C@](O)(C[C@@H](O)C[C@@H]3O[C@@H]3C=CC(=O)O1)C[C@H](O)[C@@H]2C(=O)O	yes
CC(O)=C(C#N)C(=O)Nc1ccc(C(F)(F)F)cc1	no
CCOC(=O)N1c2ccc(C(F)(F)F)cc2[C@@H](N(Cc2cc(C(F)(F)F)cc(C(F)(F)F)c2)C(=O)OC)C[C@H]1CC	yes
COc1ccc(-c2nc3ccc(C4=NNC(=O)CC4C)cc3[nH]2)cc1 (stereo not given)	no
CN1[C@H]2CC[C@H]1CC(OC(=O)c1c[nH]c3ccccc13)C2 (stereo not given in full)	no
O=C(NCCCCN1CCOCC1)c1cc2ccccc2o1	no
COc1nccc(-c2c(-c3ccc(F)cc3)ncn2C2CCC(O)CC2)n1 (stereo not given)	no
CC[C@H](C=C[C@@H](C)[C@H]1CC[C@H]2[C@@H]3CC=C4C[C@@H](O)CC[C@]4(C)[C@@H]3CC[C@]12C)C(C)C	no
